System: DU-145 prostate
Experiment: NCI tumour cell line growth inhibition, 48 h
Each entry below carries its recorded TGI.

{"compound": "C=CCn1c(=O)c(-c2ccccc2)c(O)c2ccccc21", "lt.gt.eq": ">", "TGI, µM": 100}
{"compound": "COC(=O)[C@H]1ON2O[C@H](OC3CCCC[C@@H]3c3ccccc3)C[C@@H]3CC[C@H]1[C@@]32C (stereo partly drawn)", "lt.gt.eq": ">", "TGI, µM": 100}
{"compound": "COC(=O)c1ccc2[nH]c3c(c2c1)CC(=O)Nc1ccccc1-3", "lt.gt.eq": ">", "TGI, µM": 100}
{"compound": "CCCCCCCCCCCCOC1C(C(COC2OC(C(O)CO)C3OC(C)(C)OC23)OC(=O)Nc2ccc([N+](=O)[O-])cc2)OC2OC(C)(C)OC21 (stereo not drawn)", "lt.gt.eq": "=", "TGI, µM": 7.17}
{"compound": "CC(C)(C)OC(=O)N1CC(COS(C)(=O)=O)c2ccc(O)cc21 (stereo not drawn)", "lt.gt.eq": "=", "TGI, µM": 3.53}
{"compound": "C=C(Cl)C(Cl)(CBr)CCC(Cl)C(C)C (stereo not drawn)", "lt.gt.eq": "=", "TGI, µM": 3.77}
{"compound": "CNCc1ccc(C)c(NC(=O)c2ccc(Nc3nc(-c4ccccc4)c4ccccc4n3)cc2)c1", "lt.gt.eq": "=", "TGI, µM": 7.65}
{"compound": "COC[C@@H](N=Cc1ccc(OC)cc1)C(C)C", "lt.gt.eq": ">", "TGI, µM": 100}

* * *

System: OVCAR-5 ovarian
Assay: NCI tumour cell line growth inhibition, 48 h
metric: GI50

{"molecule": "COc1ccc(-c2nccn2-c2cc(OC)c(OC)c(OC)c2)cc1", "measurement.target": "OVCAR-5 ovarian", "metric": "GI50", "reported.result": "10800 nM"}
{"molecule": "CC1SC(c2cccc(Oc3ccccc3)c2)N(CCc2cccs2)C1=O (stereo not given)", "measurement.target": "OVCAR-5 ovarian", "metric": "GI50", "reported.result": "1940 nM"}
{"molecule": "CCS(=O)(=O)Nc1ccc(Oc2ccc(F)cc2F)c(-c2cn(C)c(=O)c3[nH]ccc23)c1", "measurement.target": "OVCAR-5 ovarian", "metric": "GI50", "reported.result": "1290 nM"}
{"molecule": "CCN(CC)CCCC(C)NC(=S)N/N=C(\\C)c1ccccn1 (stereo not given)", "measurement.target": "OVCAR-5 ovarian", "metric": "GI50", "reported.result": "4890 nM"}
{"molecule": "Cn1c([N+](=O)[O-])cnc1/C=C1\\Oc2ccc(Cl)cc2C1=O", "measurement.target": "OVCAR-5 ovarian", "metric": "GI50", "reported.result": "2160 nM"}

* * *

Test system: PC-3 prostate
Test: NCI tumour cell line growth inhibition, 48 h
Each entry below carries its reported TGI.
metric: TGI

{"compound": "CC(=O)OC1C(OC/C2=C/C3[C@@H](C(C)C)CC=C(C)[C@@H]3CC(OC(=O)/C=C/c3cn(C)cn3)[C@]3(C)C=C[C@@]2(O)O3)OCC(O)C1O (stereo not given in full)", "metric": "TGI", "reported.result": "> 50 µM"}
{"compound": "C[As](C)SCC(COC(=O)c1ccccc1)OC(=O)c1ccccc1 (stereo not given)", "metric": "TGI", "reported.result": "15.7 µM"}
{"compound": "N#Cc1ccccc1C#C/C=C\\C#Cc1cnccn1", "metric": "TGI", "reported.result": "> 100 µM"}
{"compound": "NC(=O)NOCC1NC(=O)NC1=O (stereo not given)", "metric": "TGI", "reported.result": "> 100 µM"}
{"compound": "CC(C)(C)OC(=O)N(CCCN)CCCCN(CCCN)C(=O)OC(C)(C)C", "metric": "TGI", "reported.result": "> 100 µM"}
{"compound": "COc1ccc(-c2nccn2-c2cc(OC)c(OC)c(OC)c2)cc1", "metric": "TGI", "reported.result": "> 100 µM"}
{"compound": "Cc1nc2cc(NC(=O)CN3CCN(CCN4C(=O)c5cccc6cccc(c56)C4=O)CC3)ccc2s1", "metric": "TGI", "reported.result": "> 100 µM"}
{"compound": "Cn1c(N)cc(=O)nc1N", "metric": "TGI", "reported.result": "> 100 µM"}
{"compound": "COc1cccc(C(=O)C(O)c2cccc(OC)c2OC)c1OC (stereo not given)", "metric": "TGI", "reported.result": "> 100 µM"}
{"compound": "CN1CCN(Cc2ccc(NC(=O)c3cncc(C#Cc4c(N)ncc5ccc(F)cc45)c3)cc2C(F)(F)F)CC1", "metric": "TGI", "reported.result": "3.78 µM"}

* * *

System: TK-10 renal
Test: NCI tumour cell line growth inhibition, 48 h
# TGI values compiled below

{"molecule": "CCCCCCc1cc2cc(C(=O)Nc3cccc(C(F)(F)F)c3)c(=N)oc2cc1O", "TGI": "46.6 µM"}
{"molecule": "O=C1NC(N2CCCC(CO)C2)=N/C1=C\\c1ccc(O)cc1 (stereo not given)", "TGI": "> 100 µM"}
{"molecule": "CN1C(=N\\S(=O)(=O)c2ccc(Cl)cc2)/C(=N/N=P(c2ccccc2)(c2ccccc2)c2ccccc2)c2ccccc21", "TGI": "> 100 µM"}
{"molecule": "CC(=O)CC(=O)Nn1c(-c2cccs2)nc2ccc(I)cc2c1=O", "TGI": "> 100 µM"}
{"molecule": "O=C1[C@@H]2C3C=CC([C@H]4C(=O)N(CO)C(=O)[C@@H]34)[C@@H]2C(=O)N1CO", "TGI": "> 100 µM"}
{"molecule": "Nc1nc(NC(=O)C2=NS(=O)(=O)c3cc(S(N)(=O)=O)c(Cl)cc3N2)n[nH]1", "TGI": "> 100 µM"}
{"molecule": "C/C=C\\C(C)=C/C(C)C(=O)CC(O)CC1CC(=O)NC(=O)C1 (stereo not given)", "TGI": "> 100 µM"}
{"molecule": "N#CC1=C(N)Oc2c(ccc3ccccc23)C1c1ccccc1Cl (stereo not given)", "TGI": "44.1 µM"}
{"molecule": "CCOC(=O)C1(C/C=C\\CBr)CCCCCCC1=O (stereo not given)", "TGI": "> 100 µM"}
{"molecule": "CN(C)CCCN1c2ccc3ccccc3c2Sc2cccc(Cl)c21", "TGI": "5.67 µM"}

* * *

Test system: EKVX NSCLC
Assay: NCI tumour cell line growth inhibition, 48 h; in the data active means GI50 below about 0.43 µM; inactive means the rest
Outcomes: active, inactive

{"molecule": "C=C1C(=O)O[C@H]2[C@H]1CC/C(Cn1cc(CNC(=O)c3cc4ccccc4[nH]3)nn1)=C\\CC[C@@]1(C)O[C@@H]21", "measurement.target": "EKVX NSCLC", "category.label": "inactive"}
{"molecule": "COc1ccc(C(=O)CC(Cl)=C(Cl)Cl)cc1", "measurement.target": "EKVX NSCLC", "category.label": "inactive"}
{"molecule": "CCN(CC)CCC(CNc1c2ccc(Cl)cc2nc2ccc(OC)cc12)c1ccccc1 (stereo not drawn)", "measurement.target": "EKVX NSCLC", "category.label": "inactive"}
{"molecule": "Oc1c(Br)cc(Br)c2cccnc12", "measurement.target": "EKVX NSCLC", "category.label": "inactive"}
{"molecule": "O=C(/C=C/CN1CCCCC1)Nc1cc2c(Nc3ccc(F)c(Cl)c3F)ncnc2cc1OCCOC(F)F", "measurement.target": "EKVX NSCLC", "category.label": "active"}
{"molecule": "CN(C)CCCn1c2c(c3ccncc3c1=O)C(=O)c1ccccc1-2", "measurement.target": "EKVX NSCLC", "category.label": "inactive"}
{"molecule": "COc1ccc2c(c1)CCC1C2CCC2(C)C1CC[C@@]2(O)CNC(=O)/C=C/c1ccc(O)c(O)c1 (stereo partly drawn)", "measurement.target": "EKVX NSCLC", "category.label": "inactive"}
{"molecule": "N#Cc1ccccc1C#C/C=C\\C#Cc1cnccn1", "measurement.target": "EKVX NSCLC", "category.label": "inactive"}

* * *

Tested on: HCT-15 colon
Experiment: NCI tumour cell line growth inhibition, 48 h; in the data active = GI50 below about 0.43 µM; inactive = the rest
Possible outcomes: active, inactive

{"compound": "COc1c(C)cnc(Cn2cnc3c(Cl)nc(N)nc32)c1C", "measurement.target": "HCT-15 colon", "category.label": "active"}
{"compound": "C#Cc1cccc(NC(=O)Nc2cccc(NC(=O)CCl)c2)c1", "measurement.target": "HCT-15 colon", "category.label": "inactive"}
{"compound": "COc1cc2c(cc1Nc1nc(Nc3ccsc3C(N)=O)c3cc[nH]c3n1)N(C(=O)CN(C)C)CCC2", "measurement.target": "HCT-15 colon", "category.label": "inactive"}
{"compound": "N#CC1=C(N)Oc2c(ccc3ccccc23)C1c1ccccc1Cl (stereo not drawn)", "measurement.target": "HCT-15 colon", "category.label": "active"}
{"compound": "CCCCCCn1c(=N)n(CC(O)COc2cccc(C)c2)c2ccccc21 (stereo not drawn)", "measurement.target": "HCT-15 colon", "category.label": "inactive"}
{"compound": "Cc1nc2cc(NC(=O)CN3CCN(CCN4C(=O)c5cccc6cccc(c56)C4=O)CC3)ccc2s1", "measurement.target": "HCT-15 colon", "category.label": "inactive"}
{"compound": "CC(=O)OC1C(OC/C2=C/C3[C@@H](C(C)C)CC=C(C)[C@@H]3CC(OC(=O)/C=C/c3cn(C)cn3)[C@]3(C)C=C[C@@]2(O)O3)OCC(O)C1O (stereo partly drawn)", "measurement.target": "HCT-15 colon", "category.label": "inactive"}
{"compound": "Oc1c(Br)cc(Br)c2cccnc12", "measurement.target": "HCT-15 colon", "category.label": "inactive"}
{"compound": "Cc1ccc(S(=O)(=O)NC(CCCCN)C(=O)CCl)cc1 (stereo not drawn)", "measurement.target": "HCT-15 colon", "category.label": "inactive"}
{"compound": "COc1ccc(/C=C2\\CN(Cc3cn(CCCNc4ccnc5cc(Cl)ccc45)nn3)C/C(=C\\c3ccc(OC)cc3)C2=O)cc1", "measurement.target": "HCT-15 colon", "category.label": "inactive"}
{"compound": "COc1cc2c(c(OC)c1OC)-c1c(c3ccc([N+](=O)[O-])cc3c(=O)n1CCCN=[N+]=[N-])C2=O", "measurement.target": "HCT-15 colon", "category.label": "inactive"}
{"compound": "COc1ccc(C(=O)CC(Cl)=C(Cl)Cl)cc1", "measurement.target": "HCT-15 colon", "category.label": "inactive"}
{"compound": "CC1SC(c2cccc(Oc3ccccc3)c2)N(CCc2cccs2)C1=O (stereo not drawn)", "measurement.target": "HCT-15 colon", "category.label": "inactive"}
